# Tested on: 496974-208-R-J2-PDC complex spheroids, growth % test/control;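 further: spheroids exposed to the drugs for 7 days before readout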
# measurement_description: Anticancer human tumor 496974-208-R-J2-PDC patient-derived pancreatic carcinoma cell line growth inhibition [CLK]
# stated_conditions: curve of first compound; second compound 0.0316 µM
pIC50: −log10 of the molar value.
Each item that follows carries a reported pIC50.
measured_metric: pIC50

compound: CCN1CCN(Cc2ccc(Nc3ncc(F)c(-c4cc(F)c5nc(C)n(C(C)C)c5c4)n3)nc2)CC1 + CNC(=O)c1ccc(Nc2nc(OC3CCCC3)c3c(-c4ccc5nc(C)oc5c4)c[nH]c3n2)c(OC)c1
data_value: < 6.00
--
compound: C=CC(=O)Nc1cc(Nc2nccc(-c3cn(C)c4ccccc34)n2)c(OC)cc1N(C)CCN(C)C + CN1CCN(c2cc(C(=O)Nc3cc4cc(-c5cnn(C)c5)ccc4cn3)ccn2)CC1
data_value: < 6.52
--
compound: C=CC(=O)N1CCN(c2nc(=O)n(-c3c(C)ccnc3C(C)C)c3nc(-c4c(O)cccc4F)c(F)cc23)C(C)C1 (centres undefined) + CNC(=O)c1ccc(Nc2nc(OC3CCCC3)c3c(-c4ccc5nc(C)oc5c4)c[nH]c3n2)c(OC)c1
data_value: < 5.00
--
compound: C=CC(=O)N1CCN(c2nc(=O)n(-c3c(C)ccnc3C(C)C)c3nc(-c4c(O)cccc4F)c(F)cc23)C(C)C1 (centres undefined) + CN1CCN(c2cc(C(=O)Nc3cc4cc(-c5cnn(C)c5)ccc4cn3)ccn2)CC1
data_value: < 5.00

Each recorded value in this set is attributed to PubChem BioAssay AID2060615.
